Data origin, for the record: patent US11583545B2

TEST_SUMMARY: in vivo
CONDITION_NOTES: cat
MEASURE: half-life (h)
The reply should contain only the number, in h.

Please look up its half-life: O=C(C1CCCCC1)N1CC(=O)N2CCc3ccccc3C2C1 (stereo not shown) 73.9
